Source listed as PubChem BioAssay (NCI).

# Test system: RXF 393 renal
# experiment-notes: NCI tumour cell line growth inhibition, 48 h
Property: TGI; scope: individual compounds

Example cases with answers are listed next.
compound="CC(=O)OCC1OC(n2c(C)c(N=Nc3ccc(Cl)cc3)c(C)c(C#N)c2=S)C(OC(C)=O)C(OC(C)=O)C1OC(C)=O (stereo not given)" study_system="RXF 393 renal" readout_label=TGI result="40.7 µM"
compound=COc1ccc(-c2ccc(NNC(=O)c3ccc(F)cc3)nn2)cc1OC study_system="RXF 393 renal" readout_label=TGI result="> 100 µM"
compound="Oc1ccc(/C=C/c2cc(O)cc3c2C(c2cc(O)cc(O)c2)C(c2ccc(O)c(O)c2)O3)cc1 (stereo not given)" study_system="RXF 393 renal" readout_label=TGI result="> 100 µM"
compound=NCCCOc1cc(Cl)ccc1NC(=O)c1cc2ccccc2cc1OCCCN study_system="RXF 393 renal" readout_label=TGI result="2.54 µM"

Now take the following compound into account.
Q. Name the recorded TGI for "COc1ccc(CNc2nc(NC3CCCCC3)nc(NC3CCCCC3)n2)cc1" .
A. 7.94 µM

---

# System: SF-268 CNS
# experiment-notes: NCI tumour cell line growth inhibition, 48 h
Classes by TGI: interval 1 (below 20 µM), interval 2 (20 µM to below 40 µM), interval 3 (40 µM or more)

Q. Categorize the following entry: Cc1ccc2c(c1)CC1(Cc3cccc(C)c3C1=O)C2=O (configuration not stated)
A. interval 3

Q. Categorize the following entry: "COc1ccc2nc3cc(Cl)ccc3c(Sc3ccc(NC(C)=O)cc3)c2c1"
A. interval 3

Q. Categorize the following entry: "COc1cc2c3c(n(CCCN(CCO)CCO)c(=O)c2cc1OC)-c1cc2c(cc1C3=O)OCO2"
A. interval 1

Q. Categorize the following entry: CN1CCCOC(c2ccc(Cl)cc2)O1 (configuration not stated)
A. interval 3

Q. Categorize the following entry: "NCCCn1c2c(c3ccccc3c1=O)C(=O)c1ccccc1-2"
A. interval 1

---

# System: DU-145 prostate
# experiment-notes: NCI tumour cell line growth inhibition, 48 h
readout-label: TGI

Example cases with answers are listed next.
molecule=NCCCn1c2c(c3ccccc3c1=O)C(=O)c1ccccc1-2 study_system="DU-145 prostate" readout_label=TGI result="3.71 µM"
molecule=O=C(NNc1cnccn1)c1nc2cc(F)ccc2n2cccc12 study_system="DU-145 prostate" readout_label=TGI result="> 100 µM"

Q. Name the recorded TGI for "COc1cc2c3c(n(CCCN(C)CCO)c(=O)c2cc1OC)-c1cc2c(cc1C3=O)OCO2" .
A. > 100 µM

Q. Name the recorded TGI for "N[C@H](Cc1ccc2oc3cc(=O)c4ccccc4c-3nc2c1)C(=O)O" .
A. 51.7 µM

Q. Name the recorded TGI for "Cc1ccc(C(=O)NCc2ccccc2)cc1N=NN(C)C" .
A. > 100 µM

Q. Name the recorded TGI for "Cc1c2c(C(N)=O)nccc2c(C)c2c1c1ccccc1n2Cc1ccccc1" .
A. > 100 µM

Q. Name the recorded TGI for O=C1/C(=C/N2N=C(c3ccc4ccccc4c3)CC2c2ccccc2O)SC(=S)N1c1cccnc1 (stereo not given) .
A. > 100 µM

Q. Name the recorded TGI for "Cc1ccc(CSC(N)=Nc2ccccc2)cc1C" .
A. 55.4 µM

Q. Name the recorded TGI for COC(=O)N[C@H](C(=O)NC(OCc1ccccc1)C1COC(C)(C)O1)C(C)O[Si](C)(C)C(C)(C)C (stereo not given in full) .
A. > 100 µM

Q. Name the recorded TGI for "COCn1cnc2c(=O)nc(SC)n(-c3ccccc3)c21" .
A. > 100 µM

Q. Name the recorded TGI for "O=C(Nc1ccc(Cl)cc1)Nc1nccs1" .
A. 71.9 µM

Q. Name the recorded TGI for "CCOC(=O)c1c(OCC)[nH]c(=O)c(C(c2cccs2)c2c(O)c(C(=O)OCC)c(OCC)[nH]c2=O)c1O" .
A. 26.9 µM

Q. Name the recorded TGI for "N/C(=N\S(=O)(=O)c1ccc(-c2ncccc2C(F)(F)F)s1)Nc1ccc(Cl)cc1" .
A. 36.4 µM

Q. Name the recorded TGI for CCCCC1Cc2cc(O)ccc2-c2nc3cc(O)ccc3n21 (stereo not given) (tested in a mixture with another compound) .
A. > 100 µM

Q. Name the recorded TGI for CC(NC(=O)Cc1ccccc1)NC(=O)C(C)C(=O)NCc1ccccc1 (stereo not given) .
A. > 100 µM

Q. Name the recorded TGI for "COc1ccc2c(c1)c(-c1nc(-c3c[nH]c4ncccc34)cs1)cn2CCCCN1CCCCC1" .
A. 3.22 µM

Q. Name the recorded TGI for Cc1sc2c(c1C)C(c1ccc(Cl)cc1)=N[C@@H](CC(=O)Nc1ccc(OCCOCCOCCOCCNc3cccc4c3C(=O)N(C3CCC(=O)NC3=O)C4=O)cc1)c1nnc(C)n1-2 (stereo not given in full) .
A. > 100 µM

Q. Name the recorded TGI for "O=[N+]([O-])c1c(F)c(F)c2c(c1F)N(CCCCCl)c1ccccc1S2" .
A. 26.1 µM

Q. Name the recorded TGI for "CN1CCN(/C(N)=C(\C#N)C(=O)Nc2ccc(Cl)cc2)CC1" .
A. > 100 µM

Q. Name the recorded TGI for CC(=O)SC(C[N+](=O)[O-])c1ccc2c(c1)OCO2 (stereo not given) .
A. 33.7 µM

---

# Test system: COLO 205 colon
# experiment-notes: NCI tumour cell line growth inhibition, 48 h
readout-label: TGI

Example cases with answers are listed next.
molecule="CC(NC(=O)Cc1ccccc1)NC(=O)C(C)C(=O)NCc1ccccc1 (stereo unspecified)" readout_label=TGI result="> 100 µM"
molecule=COc1cc(C(=O)O[C@H](C(N)=O)[C@]2(C)CO2)c2cccc(C)c2c1 readout_label=TGI result="11.4 µM"
molecule=COc1cc2nc(-c3cccs3)nc(Cl)c2cc1OC readout_label=TGI result="> 100 µM"
molecule=COc1ccc2nc(-c3ccccc3)c(=O)[nH]c2c1 readout_label=TGI result="> 100 µM"

Q. Name the recorded TGI for CCOC(=O)C(Cc1ccc(O)cc1)Nc1nc(=O)c2c(=O)oc(Cl)cc2o1 (stereo unspecified) .
A. 37.9 µM

Q. Name the recorded TGI for "N#Cc1cc2c(cc1Cl)Sc1nnc(Nc3ccccc3)n1S2(=O)=O" .
A. 4.75 µM

---

# Tested on: HT29 colon
# experiment-notes: NCI tumour cell line growth inhibition, 48 h
Property: TGI; scope: individual compounds

Example cases with answers are listed next.
compound=COc1cccc(CC(=O)N2CCN(CCCc3ccccc3)CC2)c1 result="> 100 µM"
compound="CC(Cl)CN1c2ccccc2Sc2ccc(Cl)cc21 (stereo not given)" result="> 10 µM"
compound=COC(=O)[C@@H](NC(=O)N(Cc1ccccc1)C[C@H](CC(C)C)NC(=O)[C@@H](NC(=O)OC(C)(C)C)C(C)C)C(C)C result="> 100 µM"
compound=NCCCOc1cc2ccccc2cc1C(=O)NCCCOc1cc2ccccc2cc1C(=O)Nc1ccc(Cl)cc1O result="1.61 µM"
compound=O=C(N[C@@H](Cc1coc2ccccc12)B(O)O)[C@@H]1C[C@H]2CC[C@@H]1O2 result="> 100 µM"

Q. Name the recorded TGI for "CC(C)(C)c1cc(C(=O)/C=C/c2ccc(C(=O)O)cc2)cc(C(C)(C)C)c1" .
A. 13.2 µM

Q. Name the recorded TGI for "O=C(CCN1CCOCC1)Nc1cccc(-n2cc(-c3ccncc3)c(-c3ccc(Cl)c(O)c3)n2)c1" .
A. 11 µM

Q. Name the recorded TGI for C=CCCC1(C)CCCNC1=S (stereo not given) .
A. > 100 µM

Q. Name the recorded TGI for "Cc1ccc2[c](c1)[Sn]([c]1ccccc1)([c]1ccccc1)[c]1cc(C)ccc1N2C" .
A. > 100 µM

Q. Name the recorded TGI for "Nc1c(S(=O)(=O)c2ccccc2)c2nc3ccccc3nc2n2c1nc1ccccc12" .
A. > 100 µM

---

# Test system: CCRF-CEM leukemia
# experiment-notes: NCI tumour cell line growth inhibition, 48 h; in the data active = GI50 below about 0.43 µM; inactive = the rest
API: response.call in 1 for active, -1 for inactive

As a guide, the following entries are already answered.
compound=COc1cc2c3c(n(CCCN(CCO)CCO)c(=O)c2cc1OC)-c1cc2c(cc1C3=O)OCO2 assigned_label=1
compound=O=C(NNc1cnccn1)c1nc2cc(F)ccc2n2cccc12 assigned_label=1
compound=Clc1nc(Cl)c2ncn(Cc3ccccc3Cn3cnc4c(Cl)nc(Cl)nc43)c2n1 assigned_label=-1

Q. Check the results log: what was the call for CNC(C)[C@H]1CCC2C3CC=C4C(=O)[C@@H](NC(=O)C=C(C)C)CC[C@]4(C)C3CC[C@@]21C (some centres undefined) ?
A. -1

Q. Check the results log: what was the call for "O=C1c2ccccc2C(=O)c2c(NCCN=Cc3ccccc3O)cccc21" ?
A. -1

Q. Check the results log: what was the call for "COc1cc(OC)c2sc(-c3ccc(-n4cncc4-c4cc(OC)c(OC)c(OC)c4)cc3)nc2c1" ?
A. -1

Q. Check the results log: what was the call for "NCCN.O=C([O-])[O-].O=C([O-])[O-].[Co+3].[K+]" ?
A. -1

Q. Check the results log: what was the call for "C=C(C)[C@@H]1CC[C@]2(C)[C@H](CC[C@@H]3[C@@H]([C@@](C)(O)CCC=C(C)C)CC[C@]32C)[C@@]1(C)CCC(=O)O" ?
A. -1

Q. Check the results log: what was the call for "NCCCOc1cc(Cl)ccc1NC(=O)c1cc2ccccc2cc1OCCCN" ?
A. -1
